biological target: 5-hydroxytryptamine receptor 2C (Homo sapiens, UniProt P28335); experiment: Agonist activity at human 5HT2C receptor expressed in HEK293 cells assessed as calcium flux by FLIPR assay
Sequence (P28335 whole entry): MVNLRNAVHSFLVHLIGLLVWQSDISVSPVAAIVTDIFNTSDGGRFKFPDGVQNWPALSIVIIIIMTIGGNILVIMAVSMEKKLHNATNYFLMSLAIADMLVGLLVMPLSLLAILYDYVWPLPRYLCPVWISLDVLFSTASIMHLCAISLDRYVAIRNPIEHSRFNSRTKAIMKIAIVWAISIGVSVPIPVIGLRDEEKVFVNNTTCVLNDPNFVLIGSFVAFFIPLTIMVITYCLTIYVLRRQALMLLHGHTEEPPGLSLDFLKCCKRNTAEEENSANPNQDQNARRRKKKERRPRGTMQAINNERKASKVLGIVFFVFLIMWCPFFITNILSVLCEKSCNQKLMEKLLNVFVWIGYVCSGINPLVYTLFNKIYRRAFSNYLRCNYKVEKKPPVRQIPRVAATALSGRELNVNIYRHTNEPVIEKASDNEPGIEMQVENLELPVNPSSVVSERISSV
What EC50 was measured for each of the following?
One number for each entry, in nM.

// worked examples, EC50 included
INSERT INTO results (compound, target_or_system, unit_annotation, reported) VALUES
  ('NC[C@H]1C[C@@H]1c1ccccc1-c1cc2ccccc2o1 (relative stereo)', '5-hydroxytryptamine receptor 2C (Homo sapiens, UniProt P28335)', 'nM', 1960),
  ('NC[C@H]1C[C@@H]1c1ccccc1-c1ccc(F)cc1 (relative stereo)', '5-hydroxytryptamine receptor 2C (Homo sapiens, UniProt P28335)', 'nM', 301);

# input Which EC50 is reported for this compound? NC[C@H]1C[C@@H]1c1ccccc1C#CCCCCO (relative stereo)
# output 232

====

target: 5-hydroxytryptamine receptor 2B (Homo sapiens, UniProt P41595); assay: Agonist activity at human 5HT2B receptor expressed in HEK293 cells at 10 uM assessed as calcium flux by FLIPR assay relative to serotonin; format: functional, cell-based
Sequence (P41595 whole entry): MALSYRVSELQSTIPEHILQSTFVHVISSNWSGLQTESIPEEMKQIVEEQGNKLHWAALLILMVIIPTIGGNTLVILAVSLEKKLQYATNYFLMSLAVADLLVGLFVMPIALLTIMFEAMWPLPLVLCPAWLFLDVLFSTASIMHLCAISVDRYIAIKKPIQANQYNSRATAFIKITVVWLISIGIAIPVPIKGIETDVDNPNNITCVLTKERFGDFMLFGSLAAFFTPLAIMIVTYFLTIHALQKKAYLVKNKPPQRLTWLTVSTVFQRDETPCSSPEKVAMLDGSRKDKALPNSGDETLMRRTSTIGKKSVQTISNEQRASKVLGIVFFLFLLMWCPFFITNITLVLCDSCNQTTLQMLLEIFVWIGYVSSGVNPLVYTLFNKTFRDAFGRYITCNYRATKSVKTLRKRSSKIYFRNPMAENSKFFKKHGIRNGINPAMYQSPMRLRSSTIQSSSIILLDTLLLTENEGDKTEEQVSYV
measured.quantity: Emax (%)
Numbers only, in %.

// worked examples, Emax included
INSERT INTO assay_data (molecule, measured_quantity, reported) VALUES
  ('Cc1cccc(Cl)c1[C@H]1C[C@@H]1CN (relative stereo)', 'Emax', 90),
  ('NC[C@H]1C[C@@H]1c1cccc(O)c1 (relative stereo)', 'Emax', 98),
  ('NC[C@H]1C[C@@H]1c1ccccc1C(F)(F)F (relative stereo)', 'Emax', 102);

State recorded Emax for all listed molecules.
1. Cc1ccc(Cl)c([C@H]2C[C@@H]2CN)c1F (relative stereo)
2. NC[C@H]1C[C@@H]1c1ccccc1C#CCCCCO (relative stereo)

# output
1: 74; 2: 84

State recorded Emax for all listed molecules.
1. NC[C@H]1C[C@@H]1c1ccc2ccccc2c1 (relative stereo)
2. Cc1ccc([C@H]2C[C@@H]2CN)cc1 (relative stereo)

# output
1: 21; 2: 79

State recorded Emax for all listed molecules.
1. NC[C@H]1C[C@@H]1c1c(F)cccc1F (relative stereo)
2. Cc1cc([C@H]2C[C@@H]2CN)ccc1F (relative stereo)
3. Cc1ccc([C@H]2C[C@@H]2CN)c(Br)c1 (relative stereo)
4. NC[C@H]1C[C@@H]1c1ccc(F)cc1 (relative stereo)
5. NC[C@H]1C[C@@H]1c1ccccc1-c1ccc(F)cc1 (relative stereo)
6. CN(C)[C@H]1C[C@@H]1c1ccccc1 (racemic)

# output
1. 58
2. 83
3. 68
4. 89
5. 43
6. -2

State recorded Emax for all listed molecules.
1. CNC[C@H]1C[C@@H]1c1ccccc1 (racemic)
2. NC[C@H]1C[C@H]1c1ccccc1 (racemic)
3. NC[C@H]1C[C@@H]1c1ccc(Cl)cc1Cl (relative stereo)

# output
1. 26
2. 20
3. 89

# input Which Emax is reported for this molecule? NC[C@H]1C[C@@H]1c1ccc(F)cc1Cl (relative stereo)
# output 97

====

biological target: 5-hydroxytryptamine receptor 2B (Homo sapiens); experiment: Agonist activity at human 5HT2B receptor expressed in HEK293 cells assessed as calcium flux by FLIPR assay
pEC50: −log10 of the molar value.
Each entry gets class 0 if its pEC50 stays under 7, and class 1 if its pEC50 is 7 or above.

INSERT INTO results (molecule, group) VALUES
  ('N[C@@H]1C[C@H]1c1ccccc1.N[C@H]1C[C@@H]1c1ccccc1 (racemic)', 'class 0'),
  ('NC[C@H]1C[C@@H]1c1ccccc1-c1ccc(F)cc1 (relative stereo)', 'class 0'),
  ('C#Cc1cccc([C@H]2C[C@@H]2CN)c1 (relative stereo)', 'class 0'),
  ('NC[C@H]1C[C@@H]1c1ccc(-c2ccc(F)cc2)cc1 (relative stereo)', 'class 0'),
  ('NC[C@@H]1C[C@H]1c1ccccc1Br (relative stereo)', 'class 1'),
  ('NC[C@H]1C[C@@H]1c1ccccc1Br', 'class 1'),
  ('NC[C@@H]1C[C@H]1c1ccccc1Br', 'class 0'),
  ('NC[C@H]1C[C@@H]1c1ccccc1C#CCCCCO (relative stereo)', 'class 0');

Turning now to a further molecule:
# input Reported pEC50 at or above 7? NC[C@H]1C[C@@H]1c1cccc(C#CCCCCO)c1 (relative stereo)
# output class 0

====

assay: Selectivity ratio of Ki for human 5HT2A receptor to Ki for 5HT2C receptor
measured.quantity: Ratio Ki
Answers are plain numbers.

// worked examples, Ratio Ki included
INSERT INTO results (compound, reported) VALUES
  ('NC[C@H]1C[C@@H]1c1ccc(F)cc1Cl (relative stereo)', 1.2),
  ('NC[C@H]1C[C@@H]1c1ccccc1Br', 3.7);

State recorded Ratio Ki for all listed compounds.
1. NC[C@H]1C[C@@H]1c1ccc(F)cc1 (relative stereo)
2. NC[C@@H]1C[C@H]1c1ccccc1Br (relative stereo)
3. Cc1cccc([C@H]2C[C@@H]2CN)c1.Cl (relative stereo)

# output
1. 11.5
2. 5.3
3. 6.9

====

target: UniProt:P41595; assay: Agonist activity at human 5HT2B receptor expressed in HEK293 cells at 10 uM assessed as calcium flux by FLIPR assay relative to serotonin; type: functional, cell-based
Each entry gets NOT MET if its Emax stays under 80%, and MET if its Emax is 80% or above.

INSERT INTO assay_data (molecule, target_or_system, group) VALUES
  ('NC[C@@H]1C[C@H]1c1ccccc1', 'UniProt:P41595', 'NOT MET'),
  ('NC[C@H]1C[C@@H]1c1cccc(Br)c1 (relative stereo)', 'UniProt:P41595', 'NOT MET'),
  ('NC[C@H]1C[C@@H]1c1ccc(Cl)cc1F (relative stereo)', 'UniProt:P41595', 'MET'),
  ('NC[C@H]1C[C@@H]1c1ccc(-c2ccc(F)cc2)cc1 (relative stereo)', 'UniProt:P41595', 'NOT MET'),
  ('NC[C@H]1C[C@@H]1c1ccccc1-c1cc2ccccc2o1 (relative stereo)', 'UniProt:P41595', 'NOT MET'),
  ('C#Cc1cccc([C@H]2C[C@@H]2CN)c1 (relative stereo)', 'UniProt:P41595', 'MET');

Turning now to a further molecule:
# input Reported Emax at or above 80%? NC[C@H]1C[C@@H]1c1ccc(F)cc1F (relative stereo)
# output MET

====

molecular target: 5-hydroxytryptamine receptor 2A (Homo sapiens, UniProt P28223)
Sequence (P28223 whole entry): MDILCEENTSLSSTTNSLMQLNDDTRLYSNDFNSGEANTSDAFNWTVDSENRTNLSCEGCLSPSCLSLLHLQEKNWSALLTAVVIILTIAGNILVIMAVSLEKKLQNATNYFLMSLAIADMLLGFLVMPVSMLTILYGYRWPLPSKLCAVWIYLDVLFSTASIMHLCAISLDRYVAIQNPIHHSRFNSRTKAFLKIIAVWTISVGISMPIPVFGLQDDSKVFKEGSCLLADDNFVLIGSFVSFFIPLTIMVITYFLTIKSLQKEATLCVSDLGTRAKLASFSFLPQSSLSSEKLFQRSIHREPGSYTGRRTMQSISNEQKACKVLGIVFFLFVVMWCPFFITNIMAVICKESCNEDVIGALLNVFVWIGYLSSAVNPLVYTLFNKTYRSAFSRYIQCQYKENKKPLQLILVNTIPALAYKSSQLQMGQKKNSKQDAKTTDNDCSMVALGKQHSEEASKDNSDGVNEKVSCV
measured.quantity: pKi
Give bare numbers, as −log10 of the molar value.

INSERT INTO results (compound, reported) VALUES
  ('NC[C@H]1C[C@@H]1c1ccccc1Br', 6.61);

Here is the next item to consider.
# input Which pKi is reported for this compound? NC[C@@H]1C[C@H]1c1ccccc1Br (relative stereo)
# output 6.18

====

What Ratio Ki was measured for each of the following?
assay: Selectivity ratio of Ki for human 5HT2B receptor to Ki for 5HT2C receptor
Give bare numbers.

INSERT INTO assay_data (compound, reported) VALUES
  ('NC[C@@H]1C[C@H]1c1ccccc1Br (relative stereo)', 0.18),
  ('NC[C@H]1C[C@@H]1c1ccc(F)cc1 (relative stereo)', 0.37),
  ('NC[C@H]1C[C@@H]1c1ccccc1Br', 0.24),
  ('Cc1cccc([C@H]2C[C@@H]2CN)c1.Cl (relative stereo)', 0.32);

# input Which Ratio Ki is reported for this compound? NC[C@H]1C[C@@H]1c1ccc(F)cc1Cl (relative stereo)
# output 0.08

====

Heads up, these molecules all have Ki values measured for Sodium-dependent serotonin transporter (Homo sapiens, UniProt P31645).
One number for each entry, in µM.

INSERT INTO results (molecule, measured_quantity, reported) VALUES
  ('NC[C@@H]1C[C@H]1c1ccccc1Br (relative stereo)', 'Ki', 2.72);

Here is the next item to consider.
# input Which Ki is reported for this molecule? NC[C@H]1C[C@@H]1c1ccccc1Br
# output 3.82

====

target: 5-hydroxytryptamine receptor 2A (Homo sapiens, UniProt P28223); assay: Agonist activity at human 5HT2A receptor expressed in HEK293 cells assessed as calcium flux by FLIPR assay
What pEC50 was measured for each of the following?
Give bare numbers, as −log10 of the molar value.

// worked examples, pEC50 included
INSERT INTO measurements (compound, measured_quantity, reported) VALUES
  ('NC[C@H]1C[C@@H]1c1ccccc1', 'pEC50', 5.86),
  ('NC[C@@H]1C[C@H]1c1ccccc1 (relative stereo)', 'pEC50', 5.85),
  ('NC[C@@H]1C[C@H]1c1ccccc1Br (relative stereo)', 'pEC50', 7.03);

Here is the next item to consider.
# input Which pEC50 is reported for this compound? NC[C@H]1C[C@@H]1c1ccccc1Br
# output 7.17
